System: SOCE in HEK-293 human embryonic kidney cells
PROTOCOL_NOTES: SOCE Fura-2 bioassay in HEK293 cells
Type: cell-based
CONDITION_SET: Homo sapiens, HEK293, read-out: IC50 SOCE, purified cannabinoids, HEK-293; Table 5
pIC50: −log10 of the molar value.
READOUT_NAME: pIC50

INSERT INTO results (compound, result) VALUES
  ('CCCCCc1cc(O)c2c(c1)O[C@]1(C)CC[C@@H]3C1[C@@H]2C3(C)C (stereo partly drawn) [CBL]', '< 4.30'),
  ('C=C(C)[C@@H]1CCC(C)=C[C@H]1c1c(O)cc(CCCCC)cc1O [CBD]', '< 4.30'),
  ('CCCc1cc(O)c2c(c1)OC(C)(C)[C@@H]1CCC(C)=C[C@@H]21 [THCV]', '< 4.30');

---

System: SOCE in HEK-293 human embryonic kidney cells
PROTOCOL_NOTES: SOCE Fura-2 bioassay in HEK293 cells
Assay type: cell-based
CONDITION_SET: Homo sapiens, HEK293, read-out: IC50 SOCE, purified cannabinoids, HEK-293; Table 5
pIC50: −log10 of the molar value.
READOUT_NAME: pIC50

INSERT INTO assay_data (record_smiles, result) VALUES
  ('CCCCCc1cc(O)c2c(c1)OC(C)(C)[C@@H]1CC=C(C)C[C@@H]21', '< 4.30'),
  ('CCCCCc1cc2c(c(O)c1C(=O)O)C=C[C@@](C)(CCC=C(C)C)O2', '< 4.30'),
  ('CCCCCc1cc(OC)c2c(c1)OC(C)(C)c1ccc(C)cc1-2', '< 4.30'),
  ('CCCCCc1cc(O)c(C/C=C(\C)CCC=C(C)C)c(O)c1', '< 4.30'),
  ('CCCCCc1cc(O)c2c(c1)OC(C)(C)[C@@H]1CCC(C)=C[C@@H]21', '< 4.30');

Origin of values: patent US20230091336A1
